Hey, just so you know, these numbers are from patent US7498349B2.

# Tested on: E. faecalis ATCC 29212
# test-details: MIC, NCCLS broth microdilution assay
# Assay type: cell-based, Enterococcus faecalis
# study-conditions: E. faecalis ATCC 29212
attribute-measured: Minimum Inhibitory Concentration (MIC)

These solved cases illustrate the format of a correct answer.
> print(dat)
                                   compound       system.under.test        test.result
1  Cc1cc(NC(=O)c2cccnc2NCCCN(C)C)ccc1-c1cc2ccccc2o1 [Compound A-30]  E. faecalis ATCC 29212      +++ (MIC ≦ 4)
2  O=C(Nc1ccc(-c2cc3ccccc3[nH]2)cc1)c1nsc(NCCN2CCCC2)c1Cl [Compound A-58]  E. faecalis ATCC 29212  ++ (4 < MIC < 12)
3  CN(C)CCCNc1snc(C(=O)Nc2ccc(-c3cc4ccccc4s3)cc2)c1Cl [Compound A-47]  E. faecalis ATCC 29212      +++ (MIC ≦ 4)
4  CN(C)CCCNc1cc(Cl)ccc1C(=O)Nc1ccc(-c2cc3ccccc3o2)nc1 [Compound A-44]  E. faecalis ATCC 29212  ++ (4 < MIC < 12)
5  O=C(Nc1ccc(-c2cc3ccccc3o2)cc1)c1cccnc1NCCCN1CCOCC1 [Compound A-16]  E. faecalis ATCC 29212  ++ (4 < MIC < 12)
6  O=C(Nc1ccc(-c2cc3ccccc3o2)cc1)c1cccnc1NCCCNC1CCCCC1 [Compound A-12]  E. faecalis ATCC 29212  ++ (4 < MIC < 12)
7  Cc1cc(NC(=O)c2cccnc2NCCN2CCCCC2)ccc1-c1cc2ccccc2o1 [Compound A-27]  E. faecalis ATCC 29212      +++ (MIC ≦ 4)
8  NCCNc1snc(C(=O)Nc2ccc(-c3cc4ccccc4[nH]3)cc2)c1Cl [Compound A-56]  E. faecalis ATCC 29212  + (12 ≦ MIC ≦ 32)

Problem: Requested field: Minimum Inhibitory Concentration (MIC). Item: CN1CCN(CCNc2snc(C(=O)Nc3ccc(-c4cc5ccccc5[nH]4)cc3)c2Cl)CC1 [Compound A-61]
Solution: >32 µg/mL

Problem: Requested field: Minimum Inhibitory Concentration (MIC). Item: NCCNc1ncccc1C(=O)Nc1ccc(-c2cc3ccccc3o2)nc1 [Compound A-40]
Solution: ++ (4 < MIC < 12)

Problem: Requested field: Minimum Inhibitory Concentration (MIC). Item: O=C(Nc1ccc(-c2cc3ccccc3o2)cc1)c1cccnc1NCCN1CCNCC1 [Compound A-10]
Solution: + (12 ≦ MIC ≦ 32)

Problem: Requested field: Minimum Inhibitory Concentration (MIC). Item: O=C(Nc1ccc(-c2cc3ccccc3[nH]2)cc1)c1cccnc1NCCN1CCOCC1 [Compound A-66]
Solution: >32 µg/mL

Problem: Requested field: Minimum Inhibitory Concentration (MIC). Item: CN(C)CCCNc1ncccc1C(=O)Nc1ccc(-c2cc3ccccc3s2)nc1 [Compound A-74]
Solution: ++ (4 < MIC < 12)

---

# Test system: E. faecalis ATCC 29212
# test-details: MIC, NCCLS broth microdilution assay
# Format: cell-based, Enterococcus faecalis
# study-conditions: E. faecalis ATCC 29212
attribute-measured: Minimum Inhibitory Concentration (MIC)

> print(dat)
                               entry.smiles                      attribute.measured        test.result
1  O=C(Nc1ccc(-c2cc3ccccc3o2)cc1)c1ccc(Cl)cc1NCCN1CCNCC1  Minimum Inhibitory Concentration (MIC)  ++ (4 < MIC < 12)
2  CN(C)CCCNc1ncccc1C(=O)Nc1ccc(-c2cc3ccccc3s2)cc1  Minimum Inhibitory Concentration (MIC)      +++ (MIC ≦ 4)
3  O=C(Nc1ccc(-c2cc3ccccc3[nH]2)cc1)c1nsc(NCCN2CCOCC2)c1Cl  Minimum Inhibitory Concentration (MIC)          >32 µg/mL
4  CN(CCCN)CCCNc1snc(C(=O)Nc2ccc(-c3cc4ccccc4s3)nc2)c1Cl  Minimum Inhibitory Concentration (MIC)      +++ (MIC ≦ 4)
5  Cc1cc(NC(=O)c2nsc(NCCCN)c2Cl)ccc1-c1cc2ccccc2o1  Minimum Inhibitory Concentration (MIC)      +++ (MIC ≦ 4)

Problem: Requested field: Minimum Inhibitory Concentration (MIC). Item: O=C(Nc1ccc(-c2cc3ccccc3o2)cc1)c1cccnc1NCCN1CCCC1
Solution: +++ (MIC ≦ 4)

Problem: Requested field: Minimum Inhibitory Concentration (MIC). Item: O=C(Nc1ccc(-c2cc3ccccc3[nH]2)cc1)c1nsc(NCCN2CCNCC2)c1Cl
Solution: +++ (MIC ≦ 4)

---

Minimum Inhibitory Concentration (MIC) values for the compounds below.
# System: E. coli ATCC 25922
# test-details: MIC, NCCLS broth microdilution assay
# Type: cell-based, Escherichia coli
# study-conditions: E. coli ATCC 25922

> print(dat)
                               entry.smiles   system.under.test                      attribute.measured  test.result
1  O=C(Nc1ccc(-c2cc3ccccc3o2)nc1)c1ccc(Cl)cc1NCCN1CCCC1  E. coli ATCC 25922  Minimum Inhibitory Concentration (MIC)    >32 µg/mL
2  NCCOCCOCCNc1snc(C(=O)Nc2ccc(-c3cc4ccccc4o3)cc2)c1Cl  E. coli ATCC 25922  Minimum Inhibitory Concentration (MIC)    >32 µg/mL

Problem: Requested field: Minimum Inhibitory Concentration (MIC). Item: O=C(Nc1ccc(-c2cc3ccccc3s2)nc1)c1nsc(NCCN2CCCCC2)c1Cl
Solution: >32 µg/mL

---

# Test system: E. coli ATCC 25922
# test-details: MIC, NCCLS broth microdilution assay
# Format: cell-based, Escherichia coli
# study-conditions: E. coli ATCC 25922
Minimum Inhibitory Concentration (MIC) values for the compounds below.

> print(dat)
                               entry.smiles   system.under.test  test.result
1  Cc1ccc2nc(-c3ccc(NC(=O)c4nsc(NCCCN(C)C)c4Cl)cc3)sc2c1  E. coli ATCC 25922    >32 µg/mL

Problem: Requested field: Minimum Inhibitory Concentration (MIC). Item: Cc1ccc2nc(-c3ccc(NC(=O)c4nsc(NCCN)c4Cl)cc3)sc2c1
Solution: >32 µg/mL

Problem: Requested field: Minimum Inhibitory Concentration (MIC). Item: Cc1cc(NC(=O)c2cccnc2NCCCCN)ccc1-c1cc2ccccc2o1
Solution: >32 µg/mL

---

# System: E. faecalis ATCC 29212
# test-details: MIC, NCCLS broth microdilution assay
# Assay type: cell-based, Enterococcus faecalis
# study-conditions: E. faecalis ATCC 29212
attribute-measured: Minimum Inhibitory Concentration (MIC)

> print(dat)
                                   compound    test.result
1  CN(C)CCCNc1ncccc1C(=O)Nc1ccc(-c2cc3ccccc3o2)cc1 [Compound A-11]  +++ (MIC ≦ 4)
2  O=C(Nc1ccc(-c2cc3ccccc3s2)nc1)c1cccnc1NCCN1CCNCC1 [Compound A-73]      >32 µg/mL
3  O=C(Nc1ccc(-c2cc3ccccc3s2)cc1)c1cccnc1NCCN1CCNCC1 [Compound A-48]      >32 µg/mL
4  Cc1cc(NC(=O)c2cccnc2NCCCCN)ccc1-c1cc2ccccc2o1 [Compound A-29]  +++ (MIC ≦ 4)
5  O=C(Nc1ccc(-c2cc3ccccc3s2)cc1)c1nsc(NCCN2CCCC2)c1Cl [Compound A-46]      >32 µg/mL

Below: the item to evaluate.
Problem: Requested field: Minimum Inhibitory Concentration (MIC). Item: NCCCNc1ncccc1C(=O)Nc1ccc(-c2cc3ccccc3o2)cc1 [Compound A-9]
Solution: +++ (MIC ≦ 4)

---

# Test system: E. coli ATCC 25922
# test-details: MIC, NCCLS broth microdilution assay
# Type: cell-based, Escherichia coli
# study-conditions: E. coli ATCC 25922
attribute-measured: Minimum Inhibitory Concentration (MIC)

These solved cases illustrate the format of a correct answer.
> print(dat)
                               entry.smiles  test.result
1  NCCNc1ncccc1C(=O)Nc1ccc(-c2cc3ccccc3o2)cc1     >32 mg/L
2  O=C(Nc1ccc(-c2cc3ccccc3o2)cc1)c1cccnc1NCCCN1CCOCC1     >32 mg/L
3  Cc1cc(NC(=O)c2cccnc2NCCCN(C)C)ccc1-c1cc2ccccc2o1     >32 mg/L
4  CN(C)CCCNc1cc(Cl)ccc1C(=O)Nc1ccc(-c2cc3ccccc3o2)nc1     >32 mg/L
5  O=C(Nc1ccc(-c2cc3ccccc3s2)nc1)c1cccnc1NCCN1CCNCC1     >32 mg/L
6  NCCCCNc1snc(C(=O)Nc2ccc(-c3cc4ccccc4o3)nc2)c1Cl     >32 mg/L
7  NCCCCNc1snc(C(=O)Nc2ccc(-c3cc4ccccc4s3)nc2)c1Cl     >32 mg/L
8  O=C(Nc1ccc(-c2cc3ccccc3o2)cc1)c1cccnc1NCCN1CCNCC1     >32 mg/L

Problem: Requested field: Minimum Inhibitory Concentration (MIC). Item: CN(C)CCCNc1snc(C(=O)Nc2ccc(-c3cc4ccccc4[nH]3)cc2)c1Cl
Solution: >32 mg/L

Problem: Requested field: Minimum Inhibitory Concentration (MIC). Item: O=C(Nc1ccc(-c2cc3ccccc3[nH]2)cc1)c1cccnc1NCCN1CCOCC1
Solution: >32 mg/L

Problem: Requested field: Minimum Inhibitory Concentration (MIC). Item: Cc1cc(NC(=O)c2nsc(NCCCN)c2Cl)ccc1-c1cc2ccccc2o1
Solution: >32 mg/L

Problem: Requested field: Minimum Inhibitory Concentration (MIC). Item: CN(C)CCCNc1snc(C(=O)Nc2ccc(-c3cc4ccccc4o3)nc2)c1Cl
Solution: >32 mg/L

Problem: Requested field: Minimum Inhibitory Concentration (MIC). Item: NCCCNc1snc(C(=O)Nc2ccc(-c3cc4ccccc4o3)cc2)c1Cl
Solution: >32 mg/L

Problem: Requested field: Minimum Inhibitory Concentration (MIC). Item: CN(C)CCCNc1ncccc1C(=O)Nc1ccc(-c2cc3ccccc3s2)nc1
Solution: >32 mg/L

Problem: Requested field: Minimum Inhibitory Concentration (MIC). Item: NCCCCNc1ncccc1C(=O)Nc1ccc(-c2cc3ccccc3o2)cc1
Solution: >32 mg/L
